System: Streptococcus salivarius
Experiment: Metabolic activity, Biolog phenotype microarray
Type: cell-based
Reported conditions: S salivarius; 24 hrs
Could you please report measured metabolic activity, OD at 492 nm divided by OD of control (control = 1) for the items listed next?
Reply: number alone, nothing else.

metabolic activity, OD at 492 nm divided by OD of control (control = 1) for O=C(O)[C@H](O)[C@@H](O)[C@H](O)[C@H](O)CO[C@H]1O[C@H](CO)[C@H](O)[C@H](O)[C@H]1O is 0.9984

metabolic activity, OD at 492 nm divided by OD of control (control = 1) for O=C(O)CCC(=O)O is 0.9019

metabolic activity, OD at 492 nm divided by OD of control (control = 1) for C[C@H](O)C(=O)O is 0.9183

metabolic activity, OD at 492 nm divided by OD of control (control = 1) for O=C(O)CC(O)(CC(=O)O)C(=O)O is 0.9935

metabolic activity, OD at 492 nm divided by OD of control (control = 1) for N[C@@H](CC(=O)O)C(=O)O is 0.9496

metabolic activity, OD at 492 nm divided by OD of control (control = 1) for O=C(O)C[C@H](O)C(=O)O is 0.9740

metabolic activity, OD at 492 nm divided by OD of control (control = 1) for COC(=O)CCC(=O)O [Mono methyl succinate, mono methyl succinate] is 0.9553

====

System: Streptococcus sanguinis
Experiment: Metabolic activity, Biolog phenotype microarray
Assay type: cell-based
Reported conditions: S sanguinis; 24 hrs
Parameter measured: metabolic activity, OD at 492 nm divided by OD of control (control = 1)
Reply: number alone, nothing else.

metabolic activity, OD at 492 nm divided by OD of control (control = 1) for O=C(O)CC(O)(CC(=O)O)C(=O)O is 0.8938

metabolic activity, OD at 492 nm divided by OD of control (control = 1) for C[C@H](O)C(=O)O is 0.9076

metabolic activity, OD at 492 nm divided by OD of control (control = 1) for O=C(O)CCC(=O)O is 0.9046

metabolic activity, OD at 492 nm divided by OD of control (control = 1) for O=C(O)C[C@H](O)C(=O)O is 0.8788

metabolic activity, OD at 492 nm divided by OD of control (control = 1) for O=C(O)[C@H](O)[C@@H](O)[C@H](O)[C@H](O)CO[C@H]1O[C@H](CO)[C@H](O)[C@H](O)[C@H]1O is 1.0430

metabolic activity, OD at 492 nm divided by OD of control (control = 1) for N[C@@H](CC(=O)O)C(=O)O is 0.9451

metabolic activity, OD at 492 nm divided by OD of control (control = 1) for COC(=O)CCC(=O)O [Mono methyl succinate, mono methyl succinate] is 0.8806

====

Could you please report measured metabolic activity, OD at 492 nm divided by OD of control (control = 1) for the items listed next?
Test system: Capnocytophaga sputigena
Experiment: Metabolic activity, Biolog phenotype microarray
Format: cell-based
Reported conditions: C sputigena; 24 hrs
Reply: number alone, nothing else.

metabolic activity, OD at 492 nm divided by OD of control (control = 1) for O=C(O)[C@H](O)[C@@H](O)[C@H](O)[C@H](O)CO[C@H]1O[C@H](CO)[C@H](O)[C@H](O)[C@H]1O [Melibionic acid, melibionic acid] is 0.6213

metabolic activity, OD at 492 nm divided by OD of control (control = 1) for COC(=O)CCC(=O)O [Mono methyl succinate, mono methyl succinate] is 0.8328

metabolic activity, OD at 492 nm divided by OD of control (control = 1) for O=C(O)CCC(=O)O [Succinic acid, succinic acid] is 1.0400

metabolic activity, OD at 492 nm divided by OD of control (control = 1) for O=C(O)CC(O)(CC(=O)O)C(=O)O [Citric acid, citric acid] is 0.5992

metabolic activity, OD at 492 nm divided by OD of control (control = 1) for C[C@H](O)C(=O)O [L-lactic acid] is 1.4435

metabolic activity, OD at 492 nm divided by OD of control (control = 1) for N[C@@H](CC(=O)O)C(=O)O [L-aspartic acid] is 0.7060

metabolic activity, OD at 492 nm divided by OD of control (control = 1) for O=C(O)C[C@H](O)C(=O)O [L-malic acid] is 0.8764

====

System: Streptococcus sanguinis
Experiment: Metabolic activity, Biolog phenotype microarray
Type: cell-based
Reported conditions: S sanguinis; 48 hrs
Returns: string. Value is label 1 if measured metabolic activity, OD at 492 nm divided by OD of control (control = 1) is below 0.9, and label 0 if it is greater than or equal to it.

Is the reported metabolic activity, OD at 492 nm divided by OD of control (control = 1) for COC(=O)CCC(=O)O [Mono methyl succinate, mono methyl succinate] strictly below 0.9?
label 1

Is the reported metabolic activity, OD at 492 nm divided by OD of control (control = 1) for O=C(O)CC(O)(CC(=O)O)C(=O)O [Citric acid, citric acid] strictly below 0.9?
label 1

Is the reported metabolic activity, OD at 492 nm divided by OD of control (control = 1) for O=C(O)[C@H](O)[C@@H](O)[C@H](O)[C@H](O)CO[C@H]1O[C@H](CO)[C@H](O)[C@H](O)[C@H]1O [Melibionic acid, melibionic acid] strictly below 0.9?
label 0

====

System: Streptococcus mitis
Experiment: Metabolic activity, Biolog phenotype microarray
Type: cell-based
Reported conditions: S mitis; 24 hrs
Parameter measured: metabolic activity, OD at 492 nm divided by OD of control (control = 1)
Reply: number alone, nothing else.

metabolic activity, OD at 492 nm divided by OD of control (control = 1) for C[C@H](O)C(=O)O [L-lactic acid] is 1.0230

metabolic activity, OD at 492 nm divided by OD of control (control = 1) for O=C(O)C[C@H](O)C(=O)O [L-malic acid] is 0.9743

metabolic activity, OD at 492 nm divided by OD of control (control = 1) for N[C@@H](CC(=O)O)C(=O)O [L-aspartic acid] is 1.0323

====

Test system: Streptococcus mutans
Experiment: Metabolic activity, Biolog phenotype microarray
Assay type: cell-based
Reported conditions: S mutans; 24 hrs
Could you please report measured metabolic activity, OD at 492 nm divided by OD of control (control = 1) for the items listed next?
Reply: number alone, nothing else.

metabolic activity, OD at 492 nm divided by OD of control (control = 1) for COC(=O)CCC(=O)O [Mono methyl succinate, mono methyl succinate] is 0.9482

metabolic activity, OD at 492 nm divided by OD of control (control = 1) for O=C(O)C[C@H](O)C(=O)O [L-malic acid] is 0.9627

metabolic activity, OD at 492 nm divided by OD of control (control = 1) for O=C(O)[C@H](O)[C@@H](O)[C@H](O)[C@H](O)CO[C@H]1O[C@H](CO)[C@H](O)[C@H](O)[C@H]1O [Melibionic acid, melibionic acid] is 1.1010

metabolic activity, OD at 492 nm divided by OD of control (control = 1) for C[C@H](O)C(=O)O [L-lactic acid] is 0.8885

metabolic activity, OD at 492 nm divided by OD of control (control = 1) for O=C(O)CCC(=O)O [Succinic acid, succinic acid] is 0.8991

metabolic activity, OD at 492 nm divided by OD of control (control = 1) for N[C@@H](CC(=O)O)C(=O)O [L-aspartic acid] is 0.9715

metabolic activity, OD at 492 nm divided by OD of control (control = 1) for O=C(O)CC(O)(CC(=O)O)C(=O)O [Citric acid, citric acid] is 1.1156

====

Tested on: Fusobacterium nucleatum
Experiment: Metabolic activity, Biolog phenotype microarray
Format: cell-based
Reported conditions: F nucleatum; 48 hrs
Description: The extent of metabolic activity of the tested bacteria in the presence of the above-mentioned acids after 24 hours and 48 hours was investigated through a high throughput phenotype microarray system (PM) for microbial cells (Biolog Inc.). […] All plates were incubated in an anaerobic atmosphere at 37° C. Color changes were measured spectrophotometrically at 492 nm (Thermo Scientific Multiskan Ascent) at 24 hrs and 48 hrs using the same plate at both time points. […]
Parameter measured: metabolic activity, OD at 492 nm divided by OD of control (control = 1)
Reply: number alone, nothing else.

metabolic activity, OD at 492 nm divided by OD of control (control = 1) for COC(=O)CCC(=O)O [Mono methyl succinate, mono methyl succinate] is 0.7615

metabolic activity, OD at 492 nm divided by OD of control (control = 1) for O=C(O)CC(O)(CC(=O)O)C(=O)O [Citric acid, citric acid] is 0.6603

metabolic activity, OD at 492 nm divided by OD of control (control = 1) for N[C@@H](CC(=O)O)C(=O)O [L-aspartic acid] is 0.9448

metabolic activity, OD at 492 nm divided by OD of control (control = 1) for O=C(O)[C@H](O)[C@@H](O)[C@H](O)[C@H](O)CO[C@H]1O[C@H](CO)[C@H](O)[C@H](O)[C@H]1O [Melibionic acid, melibionic acid] is 0.8299
